composite z-score overview
tgt: E3 ubiquitin-protein ligase XIAP (Homo sapiens) (UniProt P98170)
Sequence (P98170 whole entry, looked up): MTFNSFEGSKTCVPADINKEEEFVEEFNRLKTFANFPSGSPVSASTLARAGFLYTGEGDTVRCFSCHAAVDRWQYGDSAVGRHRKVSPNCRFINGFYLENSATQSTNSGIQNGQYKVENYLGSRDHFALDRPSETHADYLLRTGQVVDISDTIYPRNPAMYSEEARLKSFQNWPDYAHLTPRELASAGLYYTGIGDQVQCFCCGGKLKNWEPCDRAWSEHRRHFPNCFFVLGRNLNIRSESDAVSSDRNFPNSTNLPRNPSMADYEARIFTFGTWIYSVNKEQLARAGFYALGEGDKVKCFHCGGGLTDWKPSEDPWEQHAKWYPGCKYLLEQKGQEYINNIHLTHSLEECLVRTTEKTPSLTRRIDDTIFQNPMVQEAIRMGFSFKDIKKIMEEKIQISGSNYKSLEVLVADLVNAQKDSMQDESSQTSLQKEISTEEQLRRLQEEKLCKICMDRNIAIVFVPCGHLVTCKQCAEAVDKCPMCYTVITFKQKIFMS
testName: XIAP binders, primary screen, biophysical, small-molecule microarray, fluorescence 635 nm (AID 1181);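 note: score merges 667 nm emission and signal to noise over triplicate slides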
runParameters: small-molecule microarray binding, higher = more signal
experimentalReadout: composite z-score

{"columns": ["compound", "quantitativeResult"],
 "data": [
  ["Cc1ccccc1C(O)C1C=CC2C(=O)NC(=O)C2N1Nc1ccc(Cl)cc1Cl (stereo not given)", 2.02],
  ["C=C(CCCC)C(=O)CC[C@H](OC(=O)c1ccccc1-c1ccccc1C(=O)O)c1ccccc1OCCO", 0.0416],
  ["COC(=O)C1=CC(CCCO)=CC(C)N(Cc2cccc(OC(F)(F)F)c2)C=C1C(=O)OC (stereo not given)", 0.365],
  ["CN1C(=O)[C@@H]2[C@@H](CC(COc3ccccc3)=C([C@H](O)CCc3ccccc3)[C@@H]2CO)C1=O", 0.0178],
  ["C=C(COC)/C(=C/C[C@@H](OC(C)=O)c1ccc(CO)o1)c1cc(C(=O)OC)ccc1OC", -0.173],
  ["O=C(CS)NCCCCCCNC(=O)[C@@H]1C[C@@H]2C(=O)NCC(=O)N2[C@@H]1c1ccc(O)cc1", -0.02],
  ["CCCCC(=C=CC[C@H](O)c1ccc(OCCO)cc1)C[C@H](O)c1cc(Cl)cc(Cl)c1O", -0.0773],
  ["CC1CC/C=C\\[C@H]2OC34C=CCN(C(C)(C)C)C(=O)[C@H]3N(C(CO)C(C)C)C(=O)[C@@H]4C2C(=O)O1 (stereo not given in full)", 0.0357],
  ["CC(=O)N1CC(C(O)C2C=CC3C(=O)NC(=O)C3N2Nc2ccc(Cl)cc2Cl)c2ccccc21 (stereo not given)", 0.277],
  ["COc1ccc(C(O)C2C=CC3C(=O)N(c4ccccc4)C(=O)C3N2Nc2ccc(C(C)C)cc2)c2ccccc12 (stereo not given)", 0.349],
  ["Cc1ccc(C(C)CC(O)C2C=CC3C(=O)N(c4ccccc4)C(=O)C3N2Nc2ccc(C#N)cc2)o1 (stereo not given)", 0.0204],
  ["C[C@]1(C(=O)O)c2ccccc2C(=O)N(Cc2ccc(OC(F)(F)F)cc2)[C@H]1c1ccc(CO)cc1", 0.265],
  ["[N-]=[N+]=NCc1ccccc1[C@@H]1OC(c2ccc(OCCCO)cc2)=N[C@]1(Cc1ccccc1N=[N+]=[N-])C(=O)NCCN1CCOCC1", -0.0826],
  ["O=c1cccc(-c2ccco2)o1", -0.179],
  ["COc1ccc([Si](C)(C)[C@@H]2[C@@H](CCn3cc([C@H](O)c4ccccc4)nn3)O[C@]3(C(=O)N(c4ccccc4)c4ccccc43)[C@H]2C)cc1", -0.131],
  ["C=CCNC(=O)[C@@H]1[C@H]2C(=O)O[C@H](c3ccccc3)[C@H](c3ccccc3)N2[C@H](c2ccc(O)cc2)[C@@]12C(=O)N(C(=O)OCCOC)c1ccc(C#CCCO)cc12", -0.0749],
  ["C=C/C=C/[C@@H]1C(=C)CN([C@@H](Cc2ccccc2)C(=O)OC)[C@H]1[C@@H](O)Cc1ccccc1", -0.0349],
  ["O=C1C2C=CC(C(O)c3cccc(O)c3)N(Nc3ccccc3)C2C(=O)N1c1ccccc1 (stereo not given)", -0.0806],
  ["COCCOC(=O)N1C(=O)[C@@]2(c3cc(C#CC4=CCCCC4)ccc31)[C@H](c1ccc(O)cc1)N1[C@H](c3ccccc3)[C@H](c3ccccc3)OC(=O)[C@H]1[C@@H]2C(=O)NC[C@H](O)c1ccccc1", 0.0471],
  ["COCCOC(=O)N1C(=O)[C@@]2(c3cc(C#CCNC(N)=O)ccc31)[C@H](c1ccc(OCCO)cc1)N1[C@H](c3ccccc3)[C@H](c3ccccc3)OC(=O)[C@H]1[C@@H]2C(=O)NC[C@H](O)c1ccccc1", -0.153],
  ["COc1ccc(C#Cc2ccc3c(c2)[C@]2(C(=O)N3)[C@H](C(=O)N3CCCCCCC3)[C@H]3C(=O)O[C@H](c4ccccc4)[C@H](c4ccccc4)N3[C@@H]2c2ccc(O)cc2)cc1", -0.0149],
  ["C=C(CCCC)C(=O)CC[C@@H](OC(=O)c1cccnc1)c1ccc(OCCO)cc1", 0.0542],
  ["NCCCCCNC(=O)[C@@H]1C[C@@H]2C(=O)N3CCC[C@H]3C(=O)N2[C@@H]1c1ccc(O)cc1", -0.0663],
  ["CO[C@H]1O[C@H](CO)[C@@H](OC(=O)Nc2cccc(F)c2)[C@H](OC(=O)Nc2ccccc2-c2ccccc2)[C@H]1OC(=O)Nc1ccccc1-c1ccccc1", -0.0925],
  ["C=C[C@@H](OC)[C@H](OC(=O)Nc1ccc(SC)cc1)c1ccc(OCCO)cc1", -0.0918],
  ["CCOC(=O)C1=C[C@@H](c2ccccc2)N(S(=O)(=O)c2ccc(C)cc2)[C@H]1c1ccccc1", 0.125],
  ["COCCOC(=O)N1C(=O)[C@@]2(c3cc(C#CCNC(N)=O)ccc31)[C@H](c1ccc(O)cc1)N1[C@H](c3ccccc3)[C@H](c3ccccc3)OC(=O)[C@H]1[C@@H]2C(N)=O", 0.0372],
  ["C=C(COC)/C(=C/C[C@@H](OC(=O)c1ccncc1)c1ccccc1OCCO)c1cc(C(=O)OC)ccc1OC", -0.211],
  ["COC(=O)[C@@]1(Cc2ccc(OC)cc2)[C@H]2c3cc(C(=O)N4CCCC4)n(Cc4cc(C)n(C)n4)c3C[C@H]2CN1C(=O)c1ccccc1", -0.02],
  ["C=C(C(=O)CC[C@@H](OC(=O)c1ccccc1-c1ccccc1C(=O)O)c1ccccc1OCCO)C(C)C", 0.209]
]}
